Values from patent US6355799B1

Tested on: large crabgrass (Digitaria sanguinalis, DIGSA)
Assay: Post-emerge test, greenhouse herbicide activity screening
Assay type: in vivo
Conditions: post-emerge, 63 g ai/ha, phytotoxicity rating 0-100 at 14 days after application
Reported Post-emerge Herbicidal Activity DIGSA values are given for each entry in this list.

Example entries begin here.
>  <compound>
Cc1c(Cl)cc(F)c(-n2c(=O)cc(C(F)(F)F)n(C)c2=O)c1NC(=O)OCc1ccc(Cl)cc1 [4-61]

>  <measuredOn>
large crabgrass (Digitaria sanguinalis, DIGSA)

>  <Post-emerge Herbicidal Activity DIGSA>
50

$$$$
>  <compound>
COc1c(Cl)cc(F)c(-n2ncc(C(F)(F)F)cc2=O)c1NC(=O)c1ccc2ccccc2c1 [Compound 11-6]

>  <measuredOn>
large crabgrass (Digitaria sanguinalis, DIGSA)

>  <Post-emerge Herbicidal Activity DIGSA>
0

$$$$
>  <compound>
Cc1c(Cl)cc(F)c(-n2c(=O)cc(C(F)(F)F)n(C)c2=O)c1NC(=O)OCc1cccc([N+](=O)[O-])c1 [4-67]

>  <measuredOn>
large crabgrass (Digitaria sanguinalis, DIGSA)

>  <Post-emerge Herbicidal Activity DIGSA>
70

$$$$
>  <compound>
COc1cccc(OC)c1OC(=O)Nc1c(C)c(Cl)cc(F)c1-n1c(=O)cc(C(F)(F)F)n(C)c1=O [4-59]

>  <measuredOn>
large crabgrass (Digitaria sanguinalis, DIGSA)

>  <Post-emerge Herbicidal Activity DIGSA>
0

$$$$

With those in mind, consider the next compound.
Inquiry: Fill in: Post-emerge Herbicidal Activity DIGSA of Nc1c(OC2CCCC2)c(Cl)cc(F)c1N1C(=O)C2=C(CCCC2)C1=O [Compound 8-5] is ___
Reply text: 0

---

Tested on: redroot pigweed (Amaranthus retroflexus, AMARE)
Test: Pre-emerge test, greenhouse herbicide activity screening
Type: in vivo
Conditions: 63 g ai/ha; pre-emerge; rated 14 days after application; 0 = no damage, 100 = complete death
Experimental: A standard greenhouse herbicide activity screening system was used to evaluate the herbicidal efficacy and crop safety of these test compounds. […] At 14 days after application of the test materials, phytotoxicity ratings were recorded. […]
assayEndpoint: Pre-emerge Herbicidal Activity AMARE (phytotoxicity rating, scale 0-100)
Quick one: just the number, no unit, thanks!

Example entries begin here.
>  <compound>
CCOC(=O)C(C)Nc1c(OC)c(Cl)cc(F)c1-n1c(=O)cc(C(F)(F)F)n(C)c1=O (centres unmarked) [Compound 1-55]

>  <endpointValue>
70

$$$$
>  <compound>
COC(=O)C(=O)Nc1c(OC)c(Cl)cc(F)c1-n1c(=O)cc(C(F)(F)F)n(C)c1=O [2-15]

>  <endpointValue>
0

$$$$
>  <compound>
O=c1cc(C(F)(F)F)[nH]c(=O)n1-c1c(F)cc(Cl)c(O)c1[N+](=O)[O-] [Compound 1-2]

>  <endpointValue>
0

$$$$
>  <compound>
C#CCOc1c(Cl)cc(F)c(-n2c(=O)cc(C(F)(F)F)n(C)c2=O)c1N [Compound 1-19]

>  <endpointValue>
95

$$$$
>  <compound>
COc1c(Cl)cc(F)c(-n2c(=O)c(N)c(C(F)(F)F)n(C)c2=O)c1N [Compound 1-10]

>  <endpointValue>
70

$$$$
>  <compound>
CCOC(=O)C(C)Nc1cc(OC(F)F)cc(F)c1-n1c(=O)cc(C(F)(F)F)n(C)c1=O (centres unmarked) [Compound 1-53]

>  <endpointValue>
100

$$$$

With those in mind, consider the next compound.
Inquiry: Fill in: Pre-emerge Herbicidal Activity AMARE (phytotoxicity rating, scale 0-100) of CC(C)Oc1c(Cl)cc(F)c(-n2c(=O)cc(C(F)(F)F)n(C)c2=O)c1N [Compound 1-63] is ___
Reply text: 100
